testedSystem: T1, Human ROR1-ECD-his (Acro Biosystems RO1-H522y) (human, UniProt Q01973 30-406)
T1 construct: extracellular domain; bought protein; also called hROR1-ECD-his; hu-ROR1-ECD-his
T1 sequence (Q01973 30-406): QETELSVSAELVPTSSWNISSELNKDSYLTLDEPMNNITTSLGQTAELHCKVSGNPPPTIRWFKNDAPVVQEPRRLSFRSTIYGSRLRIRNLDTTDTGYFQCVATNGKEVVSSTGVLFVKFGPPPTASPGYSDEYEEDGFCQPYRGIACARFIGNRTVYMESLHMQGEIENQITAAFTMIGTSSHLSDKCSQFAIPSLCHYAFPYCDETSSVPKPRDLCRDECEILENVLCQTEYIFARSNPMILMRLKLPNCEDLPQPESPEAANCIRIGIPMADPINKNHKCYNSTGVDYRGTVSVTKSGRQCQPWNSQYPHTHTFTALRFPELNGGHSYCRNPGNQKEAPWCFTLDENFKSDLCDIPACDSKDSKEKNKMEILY
assay: BLI, antibody on AHC sensor, ROR1-His 5-80 nM in solution
observable: Kd (nM)
Supply the numeric figure in nM, leaving out any unit text.

Solved cases (3 shown):
{"columns": ["binder", "Kd [nM]"],
 "data": [
  ["PR005340 (antibody, human IgG1, V domains shown, HCAb (heavy chain-only, human IgG1 Fc), no light chain) VH: EVQLVESGGGLVKPGGSLRLSCAASGFTFSDYYMSWIRQAPGKGLEWISYISSSGSTIHYADSVKGRFTISRDNAKNSLYLQMNSLRAEDTAIYYCARDIPSSSSDWVSLQFDYWGQGTLVTVSS", 1.2],
  ["PR007424 (antibody, V domains shown, bivalent form (HCAb) variant of PR005340, no light chain) VH: EVQLVESGGGLVKPGGSLRLSCAASGFTFSDYYMSWIRQAPGKGLEWISYIDSSGRPLAYADSVKGRFTISRDNAKNSLYLQMNSLRAEDTAIYYCARDMPSSSSDWVSLQFDYWGQGTLVTVSS", 1.01],
  ["PR007417 (antibody, V domains shown, bivalent form (HCAb) variant of PR005340, no light chain) VH: EVQLVESGGGLVKPGGSLRLSCAASGFTFSDFYMSWIRQAPGKGLEWISYISSSGSTRYYADSVKGRFTISRDNAKNSLYLQMNSLRAEDTAIYYCARDIPSSSSDWVDLQFDYWGQGTLVTVSS", 0.18]
]}

Then there is this binder:
Fill in: Kd of PR005338 (antibody, human IgG1, V domains shown, HCAb (heavy chain-only, human IgG1 Fc), no light chain) VH: EVQLVESGGGLVKPGGSLRLSCAASGFTFSDYYMSWIRQAPGKGLEWISYISSSGTTIHYADSVKGRFTISRDNAKNSLYLQMNSLRTEDTAVYYCARDAPSSNSDWVSLQFDYWGQGTLVTVSS is ___ 2.4

Data origin: patent US20250257130A1
